Where do the numbers come from? From patent US8143393B2.

# TGT: FGFR-1 (Homo sapiens, UniProt P11362)
# Construct: GST; made in house
# Sequence (P11362 22-822): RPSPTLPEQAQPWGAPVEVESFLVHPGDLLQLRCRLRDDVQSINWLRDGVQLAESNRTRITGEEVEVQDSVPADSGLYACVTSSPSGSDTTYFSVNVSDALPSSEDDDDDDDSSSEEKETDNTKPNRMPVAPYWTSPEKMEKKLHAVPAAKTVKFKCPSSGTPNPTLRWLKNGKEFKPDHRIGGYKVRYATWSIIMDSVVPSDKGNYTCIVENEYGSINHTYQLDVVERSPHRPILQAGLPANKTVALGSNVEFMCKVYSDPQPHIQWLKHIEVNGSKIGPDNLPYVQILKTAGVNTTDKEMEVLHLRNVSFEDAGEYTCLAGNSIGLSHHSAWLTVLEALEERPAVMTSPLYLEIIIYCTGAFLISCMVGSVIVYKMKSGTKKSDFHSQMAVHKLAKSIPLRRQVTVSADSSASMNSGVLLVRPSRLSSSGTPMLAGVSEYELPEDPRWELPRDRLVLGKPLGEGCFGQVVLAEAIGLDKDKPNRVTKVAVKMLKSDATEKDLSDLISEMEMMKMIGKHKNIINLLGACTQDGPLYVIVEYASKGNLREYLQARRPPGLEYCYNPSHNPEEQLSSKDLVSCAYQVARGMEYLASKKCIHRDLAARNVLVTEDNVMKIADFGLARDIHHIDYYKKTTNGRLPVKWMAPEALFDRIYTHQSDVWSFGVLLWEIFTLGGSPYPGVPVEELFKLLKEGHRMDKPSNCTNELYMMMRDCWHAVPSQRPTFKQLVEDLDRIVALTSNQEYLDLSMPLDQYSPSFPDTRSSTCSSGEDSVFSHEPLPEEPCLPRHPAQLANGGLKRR
# ASSAY_SUMMARY: FGFR-1 TR-FRET biochemical assay
# TEST_CONDITIONS: 0.6 uM ATP, 5 nM FGFR1-GST; bounds given in nM
READOUT_NAME: IC50

Solved cases (3 shown):
COMPOUND | TGT | IC50
CC(C)(C)OC(=O)N1CCC(c2cc(-c3ccc(NC(=O)Nc4cc(C(F)(F)F)ccn4)c(F)c3)c3c(N)ncnn23)C1 (stereo not shown) [Example 208] | FGFR-1 (Homo sapiens, UniProt P11362) | 10 to 100 nM
Cc1cc(-c2cc(CN3CCCOCC3)n3ncnc(N)c23)ccc1NC(=O)Nc1cc(C(F)(F)F)ccc1F [Example 181] | FGFR-1 (Homo sapiens, UniProt P11362) | < 10 nM
CC(=O)c1cc(-c2ccc(NC(=O)Nc3cc(C(F)(F)F)ccn3)c(F)c2)c2c(N)ncnn12 [Example 259] | FGFR-1 (Homo sapiens, UniProt P11362) | < 10 nM

Tell me IC50 reported for Nc1ncnn2c(CN3CCNC(=O)C3)cc(-c3ccc(NC(=O)Nc4cc(C(F)(F)F)ccc4F)cc3)c12 [Example 39]
< 10 nM

Tell me IC50 reported for CC(=O)N1CCN(CCCc2cc(-c3ccc(NC(=O)Nc4cc(C(F)(F)F)ccc4F)c(F)c3)c3c(N)ncnn23)CC1 [Example 188]
< 10 nM

Tell me IC50 reported for Nc1ncnn2c(CN3CCOCC3)cc(-c3ccc(NC(=O)Nc4cc(C(F)(F)F)cc[n+]4[O-])c(F)c3)c12 [Example 287]
< 10 nM

Tell me IC50 reported for CS(=O)(=O)N1CCN(Cc2cc(-c3ccc(NC(=O)Nc4cc(C(F)(F)F)ccc4F)cc3)c3c(N)ncnn23)CC1 [Example 83]
10 to 100 nM
